Target: T1, ZFP SBS#1246 (synthetic)
T1 chain: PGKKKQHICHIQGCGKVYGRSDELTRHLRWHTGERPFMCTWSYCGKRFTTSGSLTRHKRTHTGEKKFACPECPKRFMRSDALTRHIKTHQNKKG
Assay: EMSA
Conditions: tags: MBP fusion
Parameter: Kd (nM)

INSERT INTO measurements (binder, parameter, value_units, experimental_result) VALUES
  ('GTGGTTGCG (dsDNA) DNA 1: GTGGTTGCG DNA 2: CGCAACCAC', 'Kd', 'nM', 0.051);
